// reported protein stability index per item
B1: KCNK9 (parent)
chain: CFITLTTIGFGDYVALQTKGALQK

variants of: B1; assay: protein stability index of a GFP-peptide fusion (GPS, HEK-293T) (PSI 1-6); higher = more stable; conditions: c terminus: a fixed tail appended;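 further: lentivirally expressed fusions sorted by FACS into six bins by GFP to DsRed ratio, PSI derived from sequencing read proportions per bin multiplied by bin number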
Please state the value as a number alone, without comment.

protein stability index measured on T6Y = 2.71

protein stability index measured on F10T = 2.59

protein stability index measured on A15P = 3.05
